- Target of assay: UL141
- Experiment summary: SPR
Measure: pKd
Answers are plain numbers, as −log10 of the molar value.

{"Binder": "TRAIL-R2-Fc D148A (Fc fusion) QQDLAPQQRAAPQQKRSSPSEGLCPPGHHISEDGRDCISCKYGQDYSTHWNDLLFCLRCTRCDSGEVELSPCTTTRNTVCQCEEGTFREEASPEMCRKCRTGCPRGMVKVGDCTPWSDIECVHKESGLVPRGS", "pKd": 7.26}

Next, consider the following binder.
### Prompt pKd for TRAIL-R2-Fc V167A (Fc fusion) QQDLAPQQRAAPQQKRSSPSEGLCPPGHHISEDGRDCISCKYGQDYSTHWNDLLFCLRCTRCDSGEVELSPCTTTRNTVCQCEEGTFREEDSPEMCRKCRTGCPRGMVKAGDCTPWSDIECVHKESGLVPRGS ?
### Response 7.82
